System Name: Tyrosine-protein kinase JAK3 (Homo sapiens, UniProt P52333)
Sequence (P52333 whole entry): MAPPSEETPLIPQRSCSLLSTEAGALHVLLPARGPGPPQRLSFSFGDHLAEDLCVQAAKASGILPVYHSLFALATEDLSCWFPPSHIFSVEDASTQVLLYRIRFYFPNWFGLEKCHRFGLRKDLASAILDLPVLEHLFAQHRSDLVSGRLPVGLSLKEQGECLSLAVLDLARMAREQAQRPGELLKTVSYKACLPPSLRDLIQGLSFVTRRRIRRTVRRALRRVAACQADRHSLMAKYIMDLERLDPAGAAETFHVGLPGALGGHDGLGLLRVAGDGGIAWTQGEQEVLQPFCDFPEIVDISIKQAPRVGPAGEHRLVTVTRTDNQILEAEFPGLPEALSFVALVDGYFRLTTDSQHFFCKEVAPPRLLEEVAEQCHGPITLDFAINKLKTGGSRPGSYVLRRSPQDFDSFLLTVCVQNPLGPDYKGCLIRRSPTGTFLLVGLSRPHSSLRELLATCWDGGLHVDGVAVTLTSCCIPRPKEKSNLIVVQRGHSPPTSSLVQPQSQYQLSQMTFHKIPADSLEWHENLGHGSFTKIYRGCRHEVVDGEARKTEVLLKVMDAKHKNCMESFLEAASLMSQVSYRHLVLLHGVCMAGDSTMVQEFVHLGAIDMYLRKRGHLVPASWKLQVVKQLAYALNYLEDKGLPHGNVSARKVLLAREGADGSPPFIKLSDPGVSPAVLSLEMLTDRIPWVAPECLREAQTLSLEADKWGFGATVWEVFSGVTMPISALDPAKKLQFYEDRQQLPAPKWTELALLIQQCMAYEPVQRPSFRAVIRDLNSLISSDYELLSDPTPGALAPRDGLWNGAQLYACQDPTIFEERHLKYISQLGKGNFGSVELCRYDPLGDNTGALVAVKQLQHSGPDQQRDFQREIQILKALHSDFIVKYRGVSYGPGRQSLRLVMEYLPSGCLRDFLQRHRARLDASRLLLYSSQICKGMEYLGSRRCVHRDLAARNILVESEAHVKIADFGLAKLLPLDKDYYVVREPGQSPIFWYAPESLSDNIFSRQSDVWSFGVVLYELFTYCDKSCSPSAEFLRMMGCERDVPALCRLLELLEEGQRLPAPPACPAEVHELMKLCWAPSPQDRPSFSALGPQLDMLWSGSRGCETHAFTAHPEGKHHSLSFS
Quantity Name: IC50 (nM)
Output spec: scalar in nM, unitless text.

> print(dat)
                               smiles.input  quantity.name  output.unit  endpoint.value
1  N#C[C@H]1CCOC[C@@H]1n1cc(C(N)=O)c(Nc2ccc(C3CC3)cc2)n1           IC50           nM             280

Entry N#C[C@H]1CCOC[C@@H]1n1cc(C(N)=O)c(Nc2ccc(OC(F)F)cc2)n1 : reported IC50 = ?
196

Given the compound N#C[C@H]1CCOC[C@@H]1n1cc(C(N)=O)c(Nc2cc(F)c3nccc(Cl)c3c2)n1 , what is its reported IC50?
1010

Quick one: IC50 of N#Cc1ccc(Nc2nn([C@H]3COCC[C@@H]3C#N)cc2C(N)=O)cc1Cl ?
556

What value of IC50 has been recorded for this entry: N#Cc1ccc(Nc2nn([C@H]3COCC[C@@H]3C#N)cc2C(N)=O)cc1C#N
656

# lookup: IC50 of COc1cc(Nc2nn([C@H]3COCC[C@@H]3C#N)cc2C(N)=O)ccc1C#N
391

What value of IC50 has been reported for the following compound? N#C[C@H]1CCOC[C@@H]1n1cc(C(N)=O)c(Nc2ccccc2)n1
361

Item under review: N#C[C@H]1CCOC[C@@H]1n1cc(C(N)=O)c(Nc2ccc(-n3ccnn3)cc2)n1 . Reported IC50?
116

# input compound: CN(C)c1cc(Nc2nn([C@H]3COCC[C@@H]3C#N)cc2C(N)=O)cc(F)n1 ; wanted: its IC50
701

For N#C[C@H]1CCOC[C@@H]1n1cc(C(N)=O)c(Nc2ccc(Cl)cc2)n1 , what is its reported IC50?
256

* * *

# CLint scaled per record follows
Test Description: Intrinsic clearance in cynomolgus monkey hepatocytes after 120 mins by LC-MS/MS analysis
Assay type: ADME, cell-based, Macaca fascicularis, Hepatocyte
Applied Conditions: read-out: CLH
The figure you give is taken to be in mL/min/kg; do not add the unit.

> print(dat)
                               smiles.input  quantity.name  endpoint.value
1  COc1cc(Nc2nn([C@H]3COCC[C@@H]3C#N)cc2C(N)=O)ccc1Cl   CLint scaled              36

Alright, here's another compound for you.
So what does the record say about CLint scaled for N#Cc1ccc(Nc2nn([C@H]3COCC[C@@H]3C#N)cc2C(N)=O)cc1 ?
6

* * *

Recorded below: pIC50, system Tyrosine-protein kinase JAK1 (Homo sapiens).
The meaning of pIC50 here: minus log10 of the concentration in molar units.

> print(dat)
                               smiles.input  quantity.name  endpoint.value
1  N#C[C@H]1CCOC[C@@H]1n1cc(C(N)=O)c(Nc2ccc(F)cc2)n1          pIC50            7.51
2  N#C[C@H]1CCOC[C@@H]1n1cc(C(N)=O)c(Nc2ccc(C3CC3)cc2)n1          pIC50            7.43

Checklist item: pIC50 tested on Tyrosine-protein kinase JAK1 (Homo sapiens), entry Cn1cc(-c2ccc(Nc3nn([C@H]4COCC[C@@H]4C#N)cc3C(N)=O)cc2)cn1 , value?
8.22

Test system Tyrosine-protein kinase JAK1 (Homo sapiens); read-out pIC50; what value for COc1cc(Nc2nn([C@H]3COCC[C@@H]3C#N)cc2C(N)=O)ccc1Cl ?
7.89

What reported pIC50 corresponds to N#C[C@H]1CCOC[C@@H]1n1cc(C(N)=O)c(Nc2ccc(-n3ccnn3)cc2)n1 on Tyrosine-protein kinase JAK1 (Homo sapiens)?
7.64

* * *

System Name: Voltage-gated inwardly rectifying potassium channel KCNH2 (Homo sapiens, UniProt Q12809)
Sequence (Q12809 whole entry): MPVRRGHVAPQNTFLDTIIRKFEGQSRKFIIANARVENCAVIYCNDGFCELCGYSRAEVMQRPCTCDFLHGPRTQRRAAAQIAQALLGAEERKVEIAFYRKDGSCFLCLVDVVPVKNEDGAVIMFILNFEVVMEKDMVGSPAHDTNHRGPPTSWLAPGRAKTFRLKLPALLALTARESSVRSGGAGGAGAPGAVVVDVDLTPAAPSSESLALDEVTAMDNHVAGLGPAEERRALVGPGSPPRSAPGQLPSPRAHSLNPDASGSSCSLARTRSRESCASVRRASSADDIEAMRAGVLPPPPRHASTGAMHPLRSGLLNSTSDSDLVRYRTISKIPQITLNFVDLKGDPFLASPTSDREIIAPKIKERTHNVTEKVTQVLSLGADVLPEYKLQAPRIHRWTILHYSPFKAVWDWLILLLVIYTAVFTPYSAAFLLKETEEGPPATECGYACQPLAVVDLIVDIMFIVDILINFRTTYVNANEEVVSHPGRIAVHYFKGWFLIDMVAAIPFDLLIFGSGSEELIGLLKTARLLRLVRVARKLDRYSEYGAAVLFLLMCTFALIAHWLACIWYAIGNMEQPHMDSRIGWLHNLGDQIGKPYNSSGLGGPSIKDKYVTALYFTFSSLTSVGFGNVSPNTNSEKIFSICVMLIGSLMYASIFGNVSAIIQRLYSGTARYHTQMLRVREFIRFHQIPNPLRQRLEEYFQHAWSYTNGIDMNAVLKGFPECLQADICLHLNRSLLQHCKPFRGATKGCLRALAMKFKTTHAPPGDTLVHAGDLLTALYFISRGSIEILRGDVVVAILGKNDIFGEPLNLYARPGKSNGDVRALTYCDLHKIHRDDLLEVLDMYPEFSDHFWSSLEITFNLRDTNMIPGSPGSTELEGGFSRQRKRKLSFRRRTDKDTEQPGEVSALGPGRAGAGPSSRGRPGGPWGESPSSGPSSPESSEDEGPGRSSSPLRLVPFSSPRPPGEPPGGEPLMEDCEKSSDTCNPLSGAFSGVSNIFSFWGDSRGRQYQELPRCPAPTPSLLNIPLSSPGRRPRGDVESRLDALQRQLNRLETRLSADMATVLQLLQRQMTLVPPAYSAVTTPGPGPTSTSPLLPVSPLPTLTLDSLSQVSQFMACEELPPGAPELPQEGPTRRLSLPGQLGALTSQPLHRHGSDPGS
Some molecules, each annotated with its measured IC50.
Respond numerically; units are µM and should not be typed.

Which measured IC50 belongs to CN(C)[C@H]1CC[C@H](n2cc(C(N)=O)c(Nc3ccc(Cl)cc3)n2)[C@@H](C#N)C1 , tested on Voltage-gated inwardly rectifying potassium channel KCNH2 (Homo sapiens, UniProt Q12809)?
12.2

Entry CN([C@H]1CC[C@H](n2cc(C(N)=O)c(Nc3ccc(Cl)cc3)n2)[C@@H](C#N)C1)C1(C)COC1 , system Voltage-gated inwardly rectifying potassium channel KCNH2 (Homo sapiens, UniProt Q12809): what IC50 was measured?
46

# get_value(readout= IC50, system= Voltage-gated inwardly rectifying potassium channel KCNH2 (Homo sapiens, UniProt Q12809)) for N#C[C@H]1CCOC[C@@H]1n1cc(C(N)=O)c(Nc2ccc(C3CC3)cc2)n1
35

What is its IC50 for Voltage-gated inwardly rectifying potassium channel KCNH2 (Homo sapiens, UniProt Q12809)? Entry: N#Cc1ccc(Nc2nn([C@H]3COCC[C@@H]3C#N)cc2C(N)=O)cc1
40

API: value(readout= IC50, system= Voltage-gated inwardly rectifying potassium channel KCNH2 (Homo sapiens, UniProt Q12809), query= N#C[C@H]1CCOC[C@@H]1n1cc(C(N)=O)c(Nc2ccc(Cl)cc2)n1 )
40

For the record N#C[C@H]1C[C@@H](O)CC[C@@H]1n1cc(C(N)=O)c(Nc2ccc(Cl)cc2)n1 , what value of IC50 is listed for Voltage-gated inwardly rectifying potassium channel KCNH2 (Homo sapiens, UniProt Q12809)?
26

Observed IC50 on Voltage-gated inwardly rectifying potassium channel KCNH2 (Homo sapiens, UniProt Q12809) for N#C[C@H]1CCOC[C@@H]1n1cc(C(N)=O)c(Nc2ccc(F)cc2)n1 , please.
40

// lookup IC50 | system=Voltage-gated inwardly rectifying potassium channel KCNH2 (Homo sapiens, UniProt Q12809) | key= N#C[C@H]1CCOC[C@@H]1n1cc(C(N)=O)c(Nc2ccc(OC(F)F)cc2)n1
25

* * *

System Name: Voltage-gated inwardly rectifying potassium channel KCNH2 (Homo sapiens, UniProt Q12809)
Test Description: Inhibition of human ERG expressed in HEK293 cells by patch clamp method
Format: cell-based
Quantity Name: pIC50
Units for pIC50: none; it is -log10 of a concentration expressed in mol/L.

Look up pIC50: CN(C)[C@H]1CC[C@H](n2cc(C(N)=O)c(Nc3ccc(Cl)cc3)n2)[C@@H](C#N)C1
5.52

* * *

System Name: Tyrosine-protein kinase JAK2 (Homo sapiens)
Sequence (O60674 whole entry): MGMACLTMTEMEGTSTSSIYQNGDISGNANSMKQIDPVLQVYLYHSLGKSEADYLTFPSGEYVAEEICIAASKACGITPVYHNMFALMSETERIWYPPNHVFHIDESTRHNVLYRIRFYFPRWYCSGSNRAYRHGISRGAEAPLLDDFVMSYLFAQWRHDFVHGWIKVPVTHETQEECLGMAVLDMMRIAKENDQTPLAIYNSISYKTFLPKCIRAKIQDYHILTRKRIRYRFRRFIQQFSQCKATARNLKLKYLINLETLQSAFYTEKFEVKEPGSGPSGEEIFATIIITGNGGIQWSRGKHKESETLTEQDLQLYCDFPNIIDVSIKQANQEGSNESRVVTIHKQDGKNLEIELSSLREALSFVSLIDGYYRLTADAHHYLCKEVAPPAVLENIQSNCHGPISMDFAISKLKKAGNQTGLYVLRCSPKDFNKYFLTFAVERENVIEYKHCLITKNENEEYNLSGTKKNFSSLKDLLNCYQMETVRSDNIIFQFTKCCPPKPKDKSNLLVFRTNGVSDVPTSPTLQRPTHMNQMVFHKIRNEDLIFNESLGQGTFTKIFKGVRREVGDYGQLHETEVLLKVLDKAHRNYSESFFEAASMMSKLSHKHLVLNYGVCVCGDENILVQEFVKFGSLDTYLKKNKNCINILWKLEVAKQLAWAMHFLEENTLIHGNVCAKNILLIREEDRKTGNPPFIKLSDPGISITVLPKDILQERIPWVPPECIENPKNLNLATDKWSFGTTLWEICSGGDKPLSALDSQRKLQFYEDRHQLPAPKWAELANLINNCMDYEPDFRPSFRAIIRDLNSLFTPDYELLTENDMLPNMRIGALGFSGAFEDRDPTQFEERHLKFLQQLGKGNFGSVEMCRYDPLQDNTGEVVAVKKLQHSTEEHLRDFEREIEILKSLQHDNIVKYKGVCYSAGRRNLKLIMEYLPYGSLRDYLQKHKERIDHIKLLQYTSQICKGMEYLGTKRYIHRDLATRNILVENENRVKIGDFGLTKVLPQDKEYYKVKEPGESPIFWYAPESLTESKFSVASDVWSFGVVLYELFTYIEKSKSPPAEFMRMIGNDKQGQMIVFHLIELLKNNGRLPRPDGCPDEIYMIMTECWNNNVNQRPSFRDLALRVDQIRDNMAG
Binarize IC50 at 0.3 µM; below is condition met, at or above is condition not met.

Example entries and their recorded answers appear below.
> print(dat)
                               smiles.input  category.label
1  Cn1cc(-c2ccc(Nc3nn([C@H]4COCC[C@@H]4C#N)cc3C(N)=O)cc2)cn1   condition met
2  N#C[C@H]1CCOC[C@@H]1n1cc(C(N)=O)c(Nc2ccc(C3CC3)cc2)n1   condition met
3  N#Cc1ccc(Nc2nn([C@H]3COCC[C@@H]3C#N)cc2C(N)=O)cc1   condition met

Input COc1ccnc2c(F)cc(Nc3nn([C@H]4COCC[C@@H]4C#N)cc3C(N)=O)cc12 ; condition: IC50 strictly below 0.3 µM. Does it hold?
condition not met

Is IC50 of N#C[C@H]1CCOC[C@@H]1n1cc(C(N)=O)c(Nc2cc(F)c3nccc(Cl)c3c2)n1 strictly below 0.3 µM?
condition not met

Please let me know if CN(C)c1cc(Nc2nn([C@H]3COCC[C@@H]3C#N)cc2C(N)=O)cc(F)n1 shows IC50 below 0.3 µM.
condition not met

Confirm or reject: IC50 of Cc1ncnc2ccc(Nc3nn([C@H]4COCC[C@@H]4C#N)cc3C(N)=O)cc12 lies strictly below 0.3 µM
condition not met

Criterion: IC50 strictly below 0.3 µM. Is it met by C[C@@H]1NS(=O)(=O)c2ccc(Nc3nn([C@H]4COCC[C@@H]4C#N)cc3C(N)=O)cc21 ?
condition met

Input COc1cc(Nc2nn([C@H]3COCC[C@@H]3C#N)cc2C(N)=O)ccc1Cl ; condition: IC50 strictly below 0.3 µM. Does it hold?
condition not met

Is IC50 of COc1cc(Nc2nn([C@H]3COCC[C@@H]3C#N)cc2C(N)=O)ccc1C#N strictly below 0.3 µM?
condition not met

IC50 strictly < 0.3 µM for this compound? N#C[C@H]1CCOC[C@@H]1n1cc(C(N)=O)c(Nc2ccc(-n3ccnn3)cc2)n1
condition met

Consider N#C[C@H]1CCOC[C@@H]1n1cc(C(N)=O)c(Nc2ccc(OC(F)F)cc2)n1 . Does its IC50 lie strictly below 0.3 µM?
condition met

Confirm or reject: IC50 of N#Cc1ccc(Nc2nn([C@H]3COCC[C@@H]3C#N)cc2C(N)=O)cc1Cl lies strictly below 0.3 µM
condition met

Input N#Cc1ccc(Nc2nn([C@H]3COCC[C@@H]3C#N)cc2C(N)=O)cc1C1CC1 ; condition: IC50 strictly below 0.3 µM. Does it hold?
condition not met

Please determine if N#Cc1ccc(Nc2nn([C@H]3COCC[C@@H]3C#N)cc2C(N)=O)cc1C#N is below 0.3 µM in terms of IC50.
condition not met

I'd appreciate it if you could check whether N#C[C@H]1CCOC[C@@H]1n1cc(C(N)=O)c(Nc2ccc(F)cc2)n1 has IC50 smaller than 0.3 µM.
condition not met
